Test system: SW-620
assay.method.text: NCI tumour cell line growth inhibition, 48 h
The source made the active and inactive calls. Rule as the data show it: active = GI50 up to about 1.1 µM and inactive = higher.
Possible outcomes: yes = active, no = inactive

CCOC(=O)CC(N1CC1)N1CC1    no
COC1CC(C)C(OC)C2=CC(=O)C=C(NC(=O)/C(C)=C/C=C\C(C)C(OC(N)=O)/C(C)=C\C(C)C1OC)C2=O (stereo not given)    yes
O=C(Nc1ccc(Nc2ccc(NC(=O)c3ccccc3)c3c2C(=O)c2ccccc2C3=O)c2c1C(=O)c1ccccc1C2=O)c1ccccc1    no
CC(=O)c1c(-c2ccco2)c(C#N)c(=S)n(C2OC(CO)C(O)C(O)C2O)c1-c1ccccc1 (stereo not given)    no
COc1cc(OC)cc(OCc2nc3cc(C(F)(F)F)ccc3nc2-c2ccccc2)c1    no

###

Assay system HCT-15; read-out recorded as log10 of GI50.
parameter: log10 of GI50 (log10 of the value in µM)

COc1cccc(CN(C(=O)/C=C\Sc2ccccc2)C(C)(C)C)c1    1.65
CCOC(=O)Cc1cc(OC)c(OC)cc1/C(Cl)=C(\C=O)c1ccc(OC)c(OC)c1    1.24
Cc1nnc(N)nc1/C=C\c1ccc(Cl)cc1Cl    1.37
CCNC1=Nc2ccc(Cl)cc2C(c2ccccc2)=NN1    1.23
O=C(O)COc1ccc(C(=O)/C(SS/C(C(=O)c2ccc(OCC(=O)O)c(Cl)c2Cl)=C2\C=C(c3ccc(Cl)cc3)SS2)=C2/C=C(c3ccc(Cl)cc3)SS2)c(Cl)c1Cl    0.76
Cc1ccc2c(c1C)-c1c(ccc(C)c1C)C(=O)C2=O    -0.53
O=C1/C(=C/c2cccc3ccccc23)CCc2ccc([N+](=O)[O-])cc21    1.25

###

System: UACC-62
assay.method.text: NCI tumour cell line growth inhibition, 48 h
Active and inactive are the calls of the source. Rule as the data show it: active = GI50 up to about 1.1 µM and inactive = higher.
Reported values of GI50 for individual entries
parameter: GI50

CC(C)C1OC(=O)C(Cc2ccccc2)N(C)C(=O)C(C(C)C)OC(=O)C(Cc2ccccc2)N(C)C(=O)C(C(C)C)OC(=O)C(Cc2ccccc2)N(C)C1=O (configuration not stated)    0.643 µM (active)
CC1(CC(=O)OC(C#C[Si](C)(C)C)Cc2ccccc2)OCCO1 (configuration not stated)    > 100 µM (inactive)
CC1(C)C(c2ccccc2)C12CCC1(C2=O)C(c2ccccc2)C1(C)C (configuration not stated)    32 µM (inactive)
CC(C)=CC1C(C(=O)OCc2cc3c(cc2Cl)OCO3)C1(C)C (configuration not stated)    43.1 µM (inactive)
COc1cc2cc(C(=O)N3CC(COS(C)(=O)=O)c4c3cc([N+](=O)[O-])c3ccccc43)[nH]c2c(OC)c1OC (configuration not stated)    2.74 µM (inactive)
CCOC(=O)C(=O)Nc1ccc(C)c(C)c1    > 100 µM (inactive)
COc1ccc2cc1Oc1ccc(cc1)CC1c3cc(c(OC)cc3CCN1C)Oc1c3c(cc4c1C(C2)N(C)CC4)OCO3 (configuration not stated)    16.2 µM (inactive)
O=P1(Oc2ccccc2)N(CCCl)CCN1c1ccccc1 (configuration not stated)    > 100 µM (inactive)
CC1(C)CCC2=C(O1)/C(=N\Nc1ccc(F)cc1)c1ccccc1C2=O    14.7 µM (inactive)
CN(C)C(=S)Oc1ccc2ccc(=O)oc2c1    > 100 µM (inactive)
O=C(/C=C/c1ccc(O)c(O)c1)c1ccc(O)cc1O    16.9 µM (inactive)
COc1cc(OC)c(/C=C\c2cc(/C=C/c3c(OC)cc(OC)cc3OC)c3ccccc3[n+]2C)c(OC)c1    2.82 µM (inactive)
CCN1c2ccccc2-n2c(C)nnc2-c2c(-c3ccccc3)n[nH]c21    22.4 µM (inactive)
C=C1C(=O)O[C@@H]2[C@H]1CCC(C)=C1C=CC(=O)[C@]12C    10.3 µM (inactive)
CC1=C[C@@H](C)C[C@]2(C)CC[C@H](O2)[C@]23CC[C@](CO)(C[C@H](O2)[C@@H]2O[C@@](C)(CC2=O)[C@@H](O)[C@H]2CC[C@@]4(CCC[C@@H](O4)[C@H](C)C(=O)O[C@H]4C[C@H]([C@]5(O)OCC[C@H](C)[C@@H]5O)O[C@H]4C=C1)O2)O3    0.00325 µM (active)
O=C(Nc1ccccc1C(=O)NCCCO)/C(=C/c1ccccc1O)NC(=O)c1ccccc1    19.5 µM (inactive)
COc1cccc(/C=C2\CCC(CN(C)C)C2=O)c1 (configuration not stated)    8.24 µM (inactive)
Cc1ccc(C2SC(=N)Nc3c2c(C)nn3C(=O)c2ccccc2O)cc1 (configuration not stated)    1.41 µM (inactive)
Cc1ccc2c(c1C)-c1c(ccc(C)c1C)C(=O)C2=O    0.356 µM (active)
Cn1c(=O)c2nc3nnc(C#N)c(N)n3c2n(C)c1=O    > 100 µM (inactive)
CCN(CC)c1ccc2cc(-c3csc(C)n3)c(=O)oc2c1    52.8 µM (inactive)
C(=C\c1ccc2ccccc2c1Nc1ccccc1)/c1ccccc1    51.9 µM (inactive)
C[n+]1c(-c2ccc(/C=N\Nc3ccnc(N/N=C/c4ccc(-c5cn6ccsc6[n+]5C)cc4)n3)cc2)cn2ccsc21    24.4 µM (inactive)
NS(=O)(=O)c1ccc(N2C(=O)C(=O)N(c3ccccc3)C2=S)cc1    > 100 µM (inactive)
O=C(NN1C(=O)c2ccccc2C1=O)c1ccccc1Nc1ccccc1C(=O)NN1C(=O)c2ccccc2C1=O    > 100 µM (inactive)
CCOc1ncn(-c2ccc(NC(=S)Nc3ncccn3)cc2)n1    28.8 µM (inactive)
CC(=O)OC1COC(N2c3ccccc3[C@@H]3CCc4c([nH]c5ccccc45)[C@@H]32)C(OC(C)=O)C1OC(C)=O.CC(=O)OC1COC(N2c3ccccc3[C@H]3CCc4c([nH]c5ccccc45)[C@H]32)C(OC(C)=O)C1OC(C)=O (some centres not stated)    60.5 µM (inactive)
C=C1C(=O)O[C@H]2[C@H]([C@H](C)CCCC(C)=O)O[C@H]([C@@]3(C)CCC(=O)O3)C[C@@H]12    66.5 µM (inactive)
O=[N+]([O-])c1c(/C=N/c2ccccc2)oc(-c2ccc3c(c2)OCO3)c1-c1ccc2c(c1)OCO2    > 100 µM (inactive)
O=C1[C@@H](c2ccc(Cl)cc2)[C@H]2CC=C[C@H]2N1O    > 100 µM (inactive)
COC(=O)C1C(=O)CC2CCCCC21 (configuration not stated)    > 100 µM (inactive)
NCCCCCCNCc1cccc2ccccc12    > 100 µM (inactive)
CCOC(=O)Cc1cc(OC)c(OC)cc1/C(Cl)=C(\C=O)c1ccc(OC)c(OC)c1    16.4 µM (inactive)
COC(=O)c1ccc(NC(=O)c2cc3c(cc2Br)OCO3)o1    > 100 µM (inactive)
Cc1cccc(C(C)(C)C)c1NC(=O)C(=O)C(c1cnc2ccccc2n1)[N+](=O)[O-] (configuration not stated)    > 100 µM (inactive)
ON=C1CCC(c2ccccc2)CC1 (configuration not stated)    > 100 µM (inactive)
CC1(C)CC(N(C(=O)/C=C/c2ccc([N+](=O)[O-])o2)C2CCCCC2)CC(C)(C)N1    10 µM (inactive)
